Tested on: Z-138 cells
procedure.summary: Z-138 Proliferation Assay (Cell Titer Glo, 5 days)
Type: cell-based
particulars: Homo sapiens, Table D-2
pEC50: −log10 of the molar value.
Listed here are compounds together with their documented pEC50.
reported.property: pEC50

# compound, endpoint.result
measured = [
    ("O[C@@H](COc1cccc(CNC2CCCC2)c1)CN1CCc2ccccc2C1 [Compound D23]", "4.40 to 5.00"),
    ("CN(C)c1ccc(-c2cccc(OCC(O)CN3CCc4ccccc4C3)c2)cc1 (centres unmarked) [Compound D151]", "< 4.70"),
    ("OC(COCC1CCCCC1)CN1CCc2ccccc2C1 (centres unmarked) [Compound D294]", "< 4.40"),
    ("NC(=O)c1ccc(-c2cccc(OCC(O)CN3CCc4ccccc4C3)c2)cc1 (centres unmarked) [Compound D152]", "< 4.70"),
    ("OC(COc1ccc(C2CCCNC2)cc1)CN1CCc2ccccc2C1 (centres unmarked) [Compound D47]", "5.00 to 6.00"),
    ("O=S1(=O)CCN(c2ccc(OCC(O)CN3CCc4ccccc4C3)cc2)CC1 (centres unmarked) [Compound D18]", "< 4.70"),
    ("CC(C)(C)OC(=O)N1CC(OCC(O)CN2CCc3ccccc3C2)C1 (centres unmarked) [Compound D290]", "< 4.40"),
    ("O[C@@H](COc1cccc(-c2cccc3cccnc23)c1)CN1CCc2ccccc2C1 [Compound D257]", "5.00 to 6.00"),
    ("Cc1cn(C)c2cc(-c3cccc(OCC(O)CN4CCc5ccccc5C4)c3)ccc12 (centres unmarked) [Compound D187]", "< 4.70"),
    ("OC(COc1cccc(-c2cccc3c2oc2ccccc23)c1)CN1CCc2ccccc2C1 (centres unmarked) [Compound D86]", "4.40 to 5.00"),
    ("COc1cccc(COCC(O)CN2CCc3ccccc3C2)c1 (centres unmarked) [Compound D288]", "< 4.40"),
    ("CN1CC(n2cnc3ccc(-c4cccc(OCC(O)CN5CCc6ccccc6C5)c4)cc32)C1 (centres unmarked) [Compound D218]", "5.00 to 6.00"),
    ("OC(COc1cccc(-c2ccccc2Oc2ccccc2)c1)CN1CCc2ccccc2C1 (centres unmarked) [Compound D167]", "< 4.70"),
    ("CC(=O)N(CC(O)CN1CCc2ccccc2C1)c1cccc(-c2ccc3ncn(C)c3c2)c1 (centres unmarked) [Compound D273]", "4.40 to 5.00"),
    ("Cn1ncc2ccc(-c3cc(COCC(O)CN4CCc5ccccc5C4)on3)cc21 (centres unmarked) [Compound D136]", "< 4.70"),
    ("CC(C)n1ccc(-c2ccc(OCC(O)CN3CCc4ccccc4C3)cc2)n1 (centres unmarked) [Compound D27]", "< 4.40"),
    ("OC(COCc1ccc(OCc2ccccc2)cc1)CN1CCc2ccccc2C1 (centres unmarked) [Compound D12]", "< 4.70"),
    ("Cn1ncc2cnc(-c3cccc(OCC(O)CN4CCc5ccccc5C4)c3)cc21 (centres unmarked) [Compound D248]", "4.40 to 5.00"),
    ("CC(C(O)COc1cccc(CNC2CCCC2)c1)N1CCc2ccccc2C1 (centres unmarked) [Compound D33]", "< 4.40"),
    ("CN1CCC(n2cnc3ccc(-c4cccc(OCC(O)CN5CCc6ccccc6C5)c4)cc32)C1 (centres unmarked) [Compound D219]", "5.00 to 6.00"),
    ("OC(CNc1cc(-c2ccc3ncn(C4CCNC4)c3c2)ccn1)CN1CCc2ccccc2C1 (centres unmarked) [Compound D240]", "5.00 to 6.00"),
    ("OC(COc1cccc(-c2ccc3ncn(C4CCNC4)c3c2)c1)CN1CCc2ccccc2C1 (centres unmarked) [Compound D209]", "5.00 to 6.00"),
    ("CC(=O)Nc1cccc(-c2cccc(OCC(O)CN3CCc4ccccc4C3)c2)c1 (centres unmarked) [Compound D169]", "< 4.70"),
    ("OC(COCC1COc2ccccc2O1)CN1CCc2ccccc2C1 (centres unmarked) [Compound D300]", "< 4.40"),
    ("CN1CCC(OCC(O)CN2CCc3ccccc3C2)C1 (centres unmarked) [Compound D307]", "< 4.40"),
    ("Cn1cc2ccc(-c3ccnc(NCC(O)CN4CCc5ccccc5C4)c3)cc2n1 (centres unmarked) [Compound D236]", "5.00 to 6.00"),
    ("Cn1ncc2ccc(-c3cc(NCC(O)CN4CCc5ccccc5C4)ncn3)cc21 (centres unmarked) [Compound D205]", "< 4.70"),
    ("OC(COCC1CC1)CN1CCc2ccccc2C1 (centres unmarked) [Compound D303]", "< 4.40"),
    ("COc1cc2c(cc1OC)CN(CC(O)COc1cccc(CNC3CCCC3)c1)CC2 (centres unmarked) [Compound D30]", "4.40 to 5.00"),
    ("CN1CCC(OCC(O)CN2CCc3ccccc3C2)CC1 (centres unmarked) [Compound D293]", "< 4.40"),
    ("OC(COc1cccc(-c2cccc3[nH]cnc23)c1)CN1CCc2ccccc2C1 (centres unmarked) [Compound D223]", "4.40 to 5.00"),
    ("Cn1cncc1C(=O)Nc1cccc(OC[C@H](O)CN2CCc3ccccc3C2)c1 [Compound D259]", "4.40 to 5.00"),
    ("COc1ccc(Cl)cc1-c1cccc(OCC(O)CN2CCc3ccccc3C2)c1 (centres unmarked) [Compound D134]", "< 4.70"),
    ("COc1cccc(-c2cccc(OCC(O)CN3CCc4ccccc4C3)c2)c1 (centres unmarked) [Compound D74]", "4.40 to 5.00"),
    ("OC(CNc1cccc(CNC2CCCC2)c1)CN1CCc2ccccc2C1 (centres unmarked) [Compound D39]", "< 4.70"),
]

----------
Test system: Z-138 cells
procedure.summary: Z-138 Proliferation Assay (Cell Titer Glo, 5 days)
Assay type: cell-based
particulars: Homo sapiens, Table D-2

# molecule, EC50
data = [
    ("OC(COc1cccc(-c2ccc3[nH]ncc3c2)c1)CN1CCc2ccccc2C1 (centres unmarked)", "> 20 µM"),
    ("OC(COCc1ccccc1)CN1CCc2ccccc2C1 (centres unmarked)", "> 40 µM"),
    ("OC(CNc1cccc(-c2cccc3[nH]cnc23)c1)CN1CCc2ccccc2C1 (centres unmarked)", "10 to 40 µM"),
    ("OC(COc1cccc(-c2ccc3c(c2)OCCO3)c1)CN1CCc2ccccc2C1 (centres unmarked)", "10 to 40 µM"),
    ("CC(=O)N1CCC(n2ccc3cnc(-c4ccnc(NCC(O)CN5CCc6ccccc6C5)c4)nc32)CC1 (centres unmarked)", "0.101 to 1 µM"),
    ("CC(OCC(O)CN1CCc2ccccc2C1)c1cccnc1 (centres unmarked)", "> 40 µM"),
    ("O=C(Cn1ccc2cnc(-c3ccnc(NCC(O)CN4CCc5ccccc5C4)c3)nc21)N1CCOCC1 (centres unmarked)", "0.101 to 1 µM"),
    ("O=C(Cn1ccc2cnc(-c3ccnc(NCC(O)CN4CCc5ccccc5C4)c3)nc21)N1CCCCC1 (centres unmarked)", "0.101 to 1 µM"),
]

----------
System: Z-138 cells
procedure.summary: Z-138 Methylation Assay (In Cell Western for symmetric di-methyl arginine and DNA content)
Assay type: cell-based
particulars: Homo sapiens, Table D-2, read-out: ICW EC50
Protocol: Z-138 suspension cells were purchased from ATCC (American Type Culture Collection, Manassas, Va.). […] First, the ratio for each well was determined by: Each plate included fourteen control wells of DMSO only treatment (minimum inhibition) as well as fourteen control wells for maximum inhibition treated with 3 μM of a reference compound (Background wells). The average of the ratio values for each control type was calculated and used to determine the percent inhibition for each test well in the plate. […]
Let's look at some compounds and their measured EC50.
reported.property: EC50

# compound, tested.target, reported.property, endpoint.result
measured = [
    ("CN1CCC(n2cnc3ccc(-c4cccc(OCC(O)CN5CCc6ccccc6C5)c4)cc32)C1 (stereo not shown) [Compound D219]", "Z-138 cells", "EC50", "0.101 to 1 µM"),
    ("N#Cc1ccc(-c2cccc(OCC(O)CN3CCc4ccccc4C3)c2)cc1 (stereo not shown) [Compound D94]", "Z-138 cells", "EC50", "1 to 10 µM"),
    ("CNC(=O)Cn1ccc2cnc(-c3ccnc(NCC(O)CN4CCc5ccccc5C4)c3)nc21 (stereo not shown) [Compound D245]", "Z-138 cells", "EC50", "0.101 to 1 µM"),
    ("Cc1ccncc1-c1cccc(OCC(O)CN2CCc3ccccc3C2)c1 (stereo not shown) [Compound D113]", "Z-138 cells", "EC50", "0.101 to 1 µM"),
    ("Cn1cnc2ccc(-c3cccc(NCC(O)CN4CCc5ccccc5C4)c3)cc21 (stereo not shown) [Compound D102]", "Z-138 cells", "EC50", "0.101 to 1 µM"),
    ("OC(COc1cccc(-c2cccc(F)c2F)c1)CN1CCc2ccccc2C1 (stereo not shown) [Compound D68]", "Z-138 cells", "EC50", "10 to 40 µM"),
    ("OC(COc1cccc(-c2ccc3cnoc3c2)c1)CN1CCc2ccccc2C1 (stereo not shown) [Compound D166]", "Z-138 cells", "EC50", "10 to 40 µM"),
    ("Cn1cnc2ccc(-c3cc(NCC(O)CN4CCc5ccccc5C4)n[nH]3)cc21 (stereo not shown) [Compound D271]", "Z-138 cells", "EC50", "0.101 to 1 µM"),
    ("OC(COc1cccc(-c2ccc3ncoc3c2)c1)CN1CCc2ccccc2C1 (stereo not shown) [Compound D188]", "Z-138 cells", "EC50", "1 to 10 µM"),
    ("Cc1ccc(F)c(-c2cccc(OCC(O)CN3CCc4ccccc4C3)c2)c1 (stereo not shown) [Compound D138]", "Z-138 cells", "EC50", "1 to 10 µM"),
    ("OC(COc1cccc(-c2ccc3[nH]ncc3c2)c1)CN1CCc2ccccc2C1 (stereo not shown) [Compound D107]", "Z-138 cells", "EC50", "1 to 10 µM"),
    ("OC(COc1cccc(-c2ccc3ncn(-c4ccccc4)c3c2)c1)CN1CCc2ccccc2C1 (stereo not shown) [Compound D104]", "Z-138 cells", "EC50", "1 to 10 µM"),
    ("Cn1ncc2c1CN(c1cccc(OCC(O)CN3CCc4ccccc4C3)c1)CC2 (stereo not shown) [Compound D216]", "Z-138 cells", "EC50", "1 to 10 µM"),
    ("CN1CC(n2cnc3ccc(-c4cccc(OCC(O)CN5CCc6ccccc6C5)c4)cc32)C1 (stereo not shown) [Compound D218]", "Z-138 cells", "EC50", "0.101 to 1 µM"),
    ("Cn1cc2ccc(-c3cccc(NCC(O)CN4CCc5ccccc5C4)c3)nc2n1 (stereo not shown) [Compound D261]", "Z-138 cells", "EC50", "0.101 to 1 µM"),
    ("Cn1ccc2cnc(-c3ccnc(NCC(O)CN4CCc5ccccc5C4)c3)nc21 (stereo not shown) [Compound D239]", "Z-138 cells", "EC50", "< 0.1 µM"),
]
